System: Enterococcus faecalis
experimental-details: Antibacterial activity against vancomycin-sensitive Enterococcus faecalis ATCC 29212 assessed as bacterial growth inhibition incubated for 16 to 20 hrs by CLSI based two-fold serial dilution method
Assay type: functional
setup-conditions: time 16-20 hrs
Reported MIC values are given for each entry in this list.
readout-kind: MIC (mg/L)

smi | unit-of-measurement | quantitative-readout
CC1=CC(O)=C2C(=O)c3c(ccc(-c4ccc5c(c4O)C(=O)C4=C(O)C=C(C)[C@H](O)[C@]4(C)O5)c3O)O[C@]2(C)C1=O | mg/L | 2
CC1=CC(O)=C2C(=O)c3c(ccc(-c4ccc(O)c(C(=O)c5c(O)cc(C)c(O)c5C)c4O)c3O)O[C@@]2(C)[C@H]1O | mg/L | 2
CC1=CC(O)=C2C(=O)c3c(ccc(-c4ccc5c(c4O)C(=O)C4=C(O)C[C@@H](C)[C@H](O)[C@@]4(C)O5)c3O)O[C@@]2(C)[C@H]1O | mg/L | 2
CC1=CC(O)=C2C(=O)c3c(ccc(-c4ccc5c(c4O)C(=O)C4=C(O)C=C(C)[C@H](O)[C@]4(C)O5)c3O)O[C@@]2(C)C1=O | mg/L | 4
CC1=CC(O)=C2C(=O)c3c(ccc(-c4ccc5c(c4O)C(=O)[C@@]4(O)C(=O)C=C(C)[C@H](O)[C@]4(C)O5)c3O)O[C@]2(C)[C@H]1O | mg/L | 16
CC1=CC(O)=C2C(=O)c3c(O)ccc(-c4ccc5c(c4O)C(=O)C4=C(O)C=C(C)[C@H](O)[C@]4(C)O5)c3O[C@]2(C)C1=O | mg/L | 4
